Activity listing for selected compounds.
System: Rattus norvegicus
Test: Antihypertensive activity in Wistar rat assessed as mean arterial pressure at 40 mg/kg, ip measured immediately at 0 min (reference value: 194.08 +/- 1.962 mmHg)
Format: functional, Artery
Settings: route intraperitoneal

Recorded results for 4 compounds are shown here.
• O=C1/C(=C\c2ccccc2)S/C(=N\c2ccccc2)N1CC(O)CN1CCOCC1 (stereo not given) = 195.43 mmHg
• O=C1/C(=C\c2ccccc2)S/C(=N\c2ccccc2)N1CC(O)CN(c1ccccc1)c1ccccc1 (stereo not given) = 194.26 mmHg
• O=C1/C(=C\c2ccccc2)S/C(=N\c2ccccc2)N1CC(O)CN1CCN(c2ccccc2)CC1 (stereo not given) = 194.87 mmHg
• CCCN(CCC)CC(O)CN1C(=O)/C(=C\c2ccccc2)S/C1=N\c1ccccc1 (stereo not given) = 193.57 mmHg

Fill in: Activity of O=C1/C(=C\c2ccccc2)S/C(=N\c2ccccc2)N1CC(O)CN1CCC(C(O)(c2ccccc2)c2ccccc2)CC1 (stereo not given) is ___ 193.69 mmHg

---

System: Rattus norvegicus
Experiment: Toxicity in anaesthetized-Wistar rat assessed as Q-T ECG interval at 40 mg/kg, ip after 30 mins (reference value: 78.3 +/- 0.860 ms)
Assay type: organism-based
Parameters: dose 40 mg/kg, route intraperitoneal
Details: in vivo, 0.5 h
Activity listing for selected compounds.
Express your answer in min, writing the number without its unit.

Recorded results for 4 compounds are shown here.
- CCN(CC)CC(O)CN1C(=O)/C(=C\c2ccccc2)S/C1=N\c1ccccc1 (stereo not given): 83.2
- CCCN(CCC)CC(O)CN1C(=O)/C(=C\c2ccccc2)S/C1=N\c1ccccc1 (stereo not given): 73.4
- O=C1/C(=C\c2ccccc2)S/C(=N\c2ccccc2)N1CC(O)CN1CCCCC1 (stereo not given): 73.3
- O=C1/C(=C\c2ccccc2)S/C(=N\c2ccccc2)N1CC(O)CN1CCC(C(O)(c2ccccc2)c2ccccc2)CC1 (stereo not given): 74.3

# input for lookup
Fill in: Activity of O=C1/C(=C\c2ccccc2)S/C(=N\c2ccccc2)N1CC(O)CN1CCNCC1 (stereo not given) is ___ 81.8

---

Tested on: Rattus norvegicus
Experiment: Toxicity in anaesthetized-Wistar rat assessed as Q-T ECG interval at 40 mg/kg, ip after 15 mins (reference value: 79.4 +/- 1.270 ms)
Format: organism-based
Design: dose 40 mg/kg, route intraperitoneal
Conditions: in vivo, 0.25 h
recorded endpoint: Activity (min)
Express your answer in min, writing the number without its unit.

Recorded results for 8 molecules are shown here.
• CCCN(CCC)CC(O)CN1C(=O)/C(=C\c2ccccc2)S/C1=N\c1ccccc1 (centres undefined) = 72.9
• O=C1/C(=C\c2ccccc2)S/C(=N\c2ccccc2)N1CC(O)CN(c1ccccc1)c1ccccc1 (centres undefined) = 71.5
• O=C1/C(=C\c2ccccc2)S/C(=N\c2ccccc2)N1CC(O)CN1CCN(Cc2ccccc2)CC1 (centres undefined) = 74.9
• O=C1/C(=C\c2ccccc2)S/C(=N\c2ccccc2)N1CC(O)CN1CCOCC1 (centres undefined) = 74.9
• O=C1/C(=C\c2ccccc2)S/C(=N\c2ccccc2)N1CC(O)CN1CCC(C(O)(c2ccccc2)c2ccccc2)CC1 (centres undefined) = 73.4
• CCCCN(CCCC)CC(O)CN1C(=O)/C(=C\c2ccccc2)S/C1=N\c1ccccc1 (centres undefined) = 67.9
• CC(C)N1CCN(CC(O)CN2C(=O)/C(=C\c3ccccc3)S/C2=N\c2ccccc2)CC1 (centres undefined) = 76.2
• O=C1/C(=C\c2ccccc2)S/C(=N\c2ccccc2)N1CC(O)CN1CCCCC1 (centres undefined) = 72.9

Fill in: Activity of O=C1/C(=C\c2ccccc2)S/C(=N\c2ccccc2)N1CC(O)CN1CCNCC1 (centres undefined) is ___ 80.6

Next entry: O=C1/C(=C\c2ccccc2)S/C(=N\c2ccccc2)N1CC(O)CN1CCN(C2CCCCC2)CC1 (centres undefined) 72.9
